Where do the numbers come from? From patent US5714494A.

Task for the reader: assign each of the following compounds its reported inhibition in vivo at 3 mg/kg.
# System: VLDL secretion
# protocol_text: Inhibition of VLDL secretion in vivo (rat) (Triton rat)
# condition: Rattus norvegicus, po, 2 h, 3 mg/kg p.o., (n.s.) for 112, 114, 117, 154, 175, 176, 227, read-out: Triton rat % TG inhibition (p.o.) 2 h after substance
Unit % implied. Number only.

For Cn1c(=O)c2c(nc(Cc3ccccc3)n2Cc2ccc(C(C(=O)N[C@@H](CO)c3ccccc3)C3CCCC3)cc2)n(C)c1=O (single isomer, unassigned) the compound record lists inhibition in vivo at 3 mg/kg as 28

Item: Cn1c(=O)c2c(nc(-c3ccsc3)n2Cc2ccc(C(C(=O)N[C@@H](CO)c3ccccc3)C3CCCC3)cc2)n(C)c1=O (stereo partly drawn) | inhibition in vivo at 3 mg/kg: -4

The compound identified as Cn1c(=O)c2c(nc(Br)n2Cc2ccc(C(C(=O)N[C@@H](CO)c3ccccc3)C3CCCC3)cc2)n(C)c1=O (single isomer, unassigned) registered its inhibition in vivo at 3 mg/kg at 25

###

# Tested on: VLDL secretion
# protocol_text: Inhibition of VLDL secretion in vivo (rat) (Triton rat)
# condition: Rattus norvegicus, po, 2 h, 3 mg/kg p.o., (n.s.) for 112, 114, 117, 154, 175, 176, 227, read-out: Triton rat % TG inhibition (p.o.) 2 h after substance
# Description: The action of the test substances on VLDL secretion is also investigated in the rat. […] Blood is taken from the animals before and one and two hours after administration of the detergent by puncture of the retroorbital venous plexus. […] The triglycerides are then determined photometrically at a wavelength of 540 nm by means of a commercially available coupled enzyme test (Sigma Diagnostics®, No. 339). […] The respective serum concentrations are determined with the aid of standard series measured in parallel. […]
metric: inhibition in vivo at 3 mg/kg (%)
Numeric answer only, unit % assumed.

Record summary for Cn1c(=O)c2c(ncn2Cc2ccc(C(C(=O)N[C@@H](CO)c3ccccc3)C3CCCC3)cc2)n(C)c1=O (single isomer, unassigned) [Example 114] : reported inhibition in vivo at 3 mg/kg = 14.1

# compound Cc1ccc(-c2nc3c(c(=O)n(C)c(=O)n3C)n2Cc2ccc(C(C(=O)N[C@@H](CO)c3ccccc3)C3CCCC3)cc2)cc1 (stereo partly drawn) [Example 112] ; its inhibition in vivo at 3 mg/kg = 17

Field inhibition in vivo at 3 mg/kg (entry Cc1ccc(-c2nc3c(c(=O)n(C)c(=O)n3C)n2Cc2ccc(C(C(=O)N[C@@H](CO)c3ccccc3)C3CCCC3)cc2)cc1 (single isomer, unassigned) [Example 136] ) reads 28

Briefly, inhibition in vivo at 3 mg/kg measured for Cn1c(=O)c2c(nc(Cc3ccccc3)n2Cc2ccc(C(C(=O)N[C@@H](CO)c3ccccc3)C3CCCCCC3)cc2)n(C)c1=O (single isomer, unassigned) [Example 175] : 9.8

Form: compound = Cn1c(=O)c2c(nc(CCc3ccccc3)n2Cc2ccc(C(C(=O)N[C@@H](CO)c3ccccc3)C3CCCC3)cc2)n(C)c1=O (stereo partly drawn) [Example 227] ; inhibition in vivo at 3 mg/kg = -8

For record Cn1c(=O)c2c(nc(-c3cccs3)n2Cc2ccc(C(C(=O)N[C@@H](CO)c3ccccc3)C3CCCC3)cc2)n(C)c1=O (stereo partly drawn) [Example 157] the listed inhibition in vivo at 3 mg/kg is 11.3
